- test-target: CXCR5 (Homo sapiens, UniProt P32302)
- Construct: expressed in transfected cells
- Sequence (P32302 whole entry): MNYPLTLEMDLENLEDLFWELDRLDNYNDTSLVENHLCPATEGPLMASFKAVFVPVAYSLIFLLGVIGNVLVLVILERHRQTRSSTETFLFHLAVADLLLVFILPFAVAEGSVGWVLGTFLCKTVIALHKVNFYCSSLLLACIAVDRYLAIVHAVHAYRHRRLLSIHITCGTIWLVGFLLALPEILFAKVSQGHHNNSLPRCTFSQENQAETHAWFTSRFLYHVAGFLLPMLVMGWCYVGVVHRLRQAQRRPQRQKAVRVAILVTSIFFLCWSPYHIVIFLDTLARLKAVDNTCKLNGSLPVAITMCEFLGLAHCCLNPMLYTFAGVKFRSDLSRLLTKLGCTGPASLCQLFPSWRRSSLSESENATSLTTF
- procedure-summary: Figure S2a opioid peptide screen on chemokine receptors
- Assay type: cell-based
- Set-up: dose or concentration left out as unconfirmed
- test-settings: replicate 3, read-out: CXCR5 activity, ctrl+ = 100
endpoint-label: activation (%)

CC(C)C[C@H](NC(=O)[C@H](Cc1ccccc1)NC(=O)CNC(=O)CNC(=O)[C@@H](N)Cc1ccc(O)cc1)C(=O)N[C@@H](CCCN=C(N)N)C(=O)N[C@@H](CCCN=C(N)N)C(=O)N[C@@H](CCC(N)=O)C(=O)N[C@@H](Cc1ccccc1)C(=O)N[C@@H](CCCCN)C(=O)N[C@H](C(=O)N[C@H](C(=O)N[C@H](C(=O)O)[C@@H](C)O)C(C)C)C(C)C [Dynorphin B] | 11.3
